assayedTarget: β-1,3-glucan synthase from Aspergillus fumigatus (Aspergillus fumigatus, UniProt Q4WLT4)
Sequence (Q4WLT4 1-1904): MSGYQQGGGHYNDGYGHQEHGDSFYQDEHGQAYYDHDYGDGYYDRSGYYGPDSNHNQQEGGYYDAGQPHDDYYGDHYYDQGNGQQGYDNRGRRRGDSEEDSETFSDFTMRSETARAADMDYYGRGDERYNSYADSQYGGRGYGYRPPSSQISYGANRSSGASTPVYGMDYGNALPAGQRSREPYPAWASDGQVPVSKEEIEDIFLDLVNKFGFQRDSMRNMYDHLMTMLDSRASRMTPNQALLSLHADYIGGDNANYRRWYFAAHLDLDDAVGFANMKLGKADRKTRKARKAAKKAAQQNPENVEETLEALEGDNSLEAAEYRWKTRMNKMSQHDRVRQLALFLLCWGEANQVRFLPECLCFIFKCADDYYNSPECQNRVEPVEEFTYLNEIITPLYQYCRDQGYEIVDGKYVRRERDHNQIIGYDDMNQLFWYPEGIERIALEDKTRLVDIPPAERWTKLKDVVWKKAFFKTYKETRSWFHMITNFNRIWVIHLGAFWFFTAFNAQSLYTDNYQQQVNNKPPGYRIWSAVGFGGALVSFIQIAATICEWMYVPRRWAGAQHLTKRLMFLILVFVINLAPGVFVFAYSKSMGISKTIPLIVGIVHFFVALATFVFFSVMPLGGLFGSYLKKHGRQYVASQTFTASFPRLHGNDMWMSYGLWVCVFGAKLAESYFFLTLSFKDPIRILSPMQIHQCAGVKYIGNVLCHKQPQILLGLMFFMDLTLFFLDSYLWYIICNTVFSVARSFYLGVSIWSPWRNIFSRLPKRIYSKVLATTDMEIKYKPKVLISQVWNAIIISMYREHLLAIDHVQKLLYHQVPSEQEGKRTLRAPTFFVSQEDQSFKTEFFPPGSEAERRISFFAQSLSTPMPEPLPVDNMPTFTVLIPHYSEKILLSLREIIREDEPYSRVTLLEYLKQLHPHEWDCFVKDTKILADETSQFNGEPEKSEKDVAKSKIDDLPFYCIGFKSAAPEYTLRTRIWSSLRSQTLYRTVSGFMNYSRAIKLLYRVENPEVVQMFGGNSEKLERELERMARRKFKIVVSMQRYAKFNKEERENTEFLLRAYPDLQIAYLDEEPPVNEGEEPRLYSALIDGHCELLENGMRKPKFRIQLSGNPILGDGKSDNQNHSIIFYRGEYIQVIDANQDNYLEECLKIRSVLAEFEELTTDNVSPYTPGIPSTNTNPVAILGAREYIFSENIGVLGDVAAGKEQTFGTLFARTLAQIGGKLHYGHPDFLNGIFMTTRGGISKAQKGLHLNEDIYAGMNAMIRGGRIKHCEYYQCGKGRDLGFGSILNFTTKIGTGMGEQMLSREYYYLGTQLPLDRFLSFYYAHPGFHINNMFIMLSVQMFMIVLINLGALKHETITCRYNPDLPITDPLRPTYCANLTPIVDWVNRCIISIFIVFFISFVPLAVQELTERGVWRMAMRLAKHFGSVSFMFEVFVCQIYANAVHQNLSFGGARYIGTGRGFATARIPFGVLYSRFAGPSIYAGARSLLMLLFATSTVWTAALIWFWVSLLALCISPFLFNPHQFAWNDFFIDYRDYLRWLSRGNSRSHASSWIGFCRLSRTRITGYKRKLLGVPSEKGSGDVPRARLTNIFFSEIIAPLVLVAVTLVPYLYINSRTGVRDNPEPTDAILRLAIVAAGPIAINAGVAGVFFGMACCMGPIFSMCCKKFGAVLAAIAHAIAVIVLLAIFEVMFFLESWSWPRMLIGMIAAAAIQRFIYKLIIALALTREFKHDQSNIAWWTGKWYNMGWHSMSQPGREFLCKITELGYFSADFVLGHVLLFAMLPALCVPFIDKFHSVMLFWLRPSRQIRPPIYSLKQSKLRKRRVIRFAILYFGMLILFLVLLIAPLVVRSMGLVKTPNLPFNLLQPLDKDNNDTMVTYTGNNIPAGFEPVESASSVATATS
pIC50: −log10 of the molar value.
Record label 1 whenever pIC50 is at 5 or higher; record label 0 when lower.

N[C@H]1CCN(C(=O)CN(CC(=O)NCc2cccc(Cl)c2)c2ccccc2Oc2ccccc2)C1    label 0
N[C@H]1CCN(C(=O)CN(CC(=O)NCc2cc(F)cc(C(F)(F)F)c2)c2ccc(Oc3ccccc3)cc2)C1    label 1
N[C@H]1CCN(C(=O)CN(C(=O)/C=C/c2ccccc2)c2ccc(-c3cccc(OC(F)(F)F)c3)cc2)C1    label 0
N[C@H]1CCN(C(=O)CN(CC(=O)NCc2cc(C(F)(F)F)cc(C(F)(F)F)c2)c2cccc(Oc3ccccc3)c2)C1    label 1

Switching to the query record.
Task: Please tell me: is the compound N[C@H]1CCN(C(=O)CN(C(=O)/C=C/c2ccccc2)c2ccc(Oc3ccccc3)cc2)C1 at or over 5 in terms of pIC50?
Result: label 0
